System Name: Prostaglandin G/H synthase 2 (Homo sapiens, UniProt P35354)
Sequence (P35354 whole entry): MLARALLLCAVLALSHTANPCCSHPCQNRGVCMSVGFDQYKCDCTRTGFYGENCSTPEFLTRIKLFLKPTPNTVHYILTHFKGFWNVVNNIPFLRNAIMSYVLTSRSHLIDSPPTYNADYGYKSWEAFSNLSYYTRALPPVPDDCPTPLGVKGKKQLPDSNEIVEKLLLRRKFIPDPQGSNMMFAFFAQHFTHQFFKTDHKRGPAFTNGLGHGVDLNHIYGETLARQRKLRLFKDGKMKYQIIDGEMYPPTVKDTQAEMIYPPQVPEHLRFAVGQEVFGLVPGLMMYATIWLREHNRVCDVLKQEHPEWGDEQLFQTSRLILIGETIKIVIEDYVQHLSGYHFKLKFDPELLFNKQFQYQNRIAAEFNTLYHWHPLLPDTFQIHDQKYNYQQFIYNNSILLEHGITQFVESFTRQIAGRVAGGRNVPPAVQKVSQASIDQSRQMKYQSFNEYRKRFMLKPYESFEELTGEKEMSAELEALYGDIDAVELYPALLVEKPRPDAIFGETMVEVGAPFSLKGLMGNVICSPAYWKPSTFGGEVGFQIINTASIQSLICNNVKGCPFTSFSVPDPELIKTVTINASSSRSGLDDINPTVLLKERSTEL
Observation Type: IC50

These solved cases illustrate the format of a correct answer.
CS(=O)(=O)c1ccc(-c2nc(NCc3cccnc3)cc(C(F)(F)F)n2)cc1
> 10 µM
CS(=O)(=O)c1ccc(-c2nc(NCC3CCCC3)cc(C(F)(F)F)n2)cc1
> 10 µM

Shifting focus to the molecule that follows.
Input: Give recorded IC50 with Prostaglandin G/H synthase 2 (Homo sapiens, UniProt P35354) for the following molecule: `CS(=O)(=O)c1ccc(-c2nc(NCc3ccc4ccccc4c3)cc(C(F)(F)F)n2)cc1`
Output: > 10 µM
